- System: Echinochloa oryzicola Vasing
- Experiment Notes: Test Example 1: herbicidal effects in paddy field soil treatment
- Type: in vivo
- Design: scale not given here
- Run Parameters: 1000 g active ingredient per hectare, 21st day after treatment
Assign Herbicidal effect index, Echinochloa oryzicola to each entry below.
Reply briefly: the number, and no unit.

Herbicidal effect index, Echinochloa oryzicola for O=C1CCCC(O)=C1C(=O)c1cc2ccc(C(F)F)nc2n(-c2ccccc2)c1=O is 5

According to the records, this compound Cn1c(=O)c(C(=O)C2=C(O)CCCC2=O)cc2ccc(C(F)(F)Cl)nc21 displays Herbicidal effect index, Echinochloa oryzicola of 5

The recorded Herbicidal effect index, Echinochloa oryzicola for entry CCn1c(=O)c(C(=O)C2=C(O)CCCC2=O)cc2c(Cl)cccc21 equals 5

The recorded Herbicidal effect index, Echinochloa oryzicola for CC(C)c1ccc2cc(C(=O)C3=C(O)CCCC3=O)c(=O)n(-c3ccccc3)c2n1 is 5

The compound listed as Cn1c(=O)c(C(=O)C2=C(O)CCCC2=O)cc2ccc(C(F)(F)F)nc21 has a reported Herbicidal effect index, Echinochloa oryzicola of 5

Herbicidal effect index, Echinochloa oryzicola for COc1cccc(-n2c(=O)c(C(=O)C3=C(O)CCCC3=O)cc3cccnc32)c1 is 5

Documented Herbicidal effect index, Echinochloa oryzicola of CC(C)c1ccc2cc(C(=O)C3=C(O)CCCC3=O)c(=O)n(C)c2n1 : 3

Reported Herbicidal effect index, Echinochloa oryzicola for CCCn1c(=O)c(C(=O)C2=C(O)CCCC2=O)cc2cccnc21 was 5

// field: Herbicidal effect index, Echinochloa oryzicola; key: CCn1c(=O)c(C(=O)C2=C(O)CCCC2=O)cc2cccnc21 ; value = 5

Note to self: Herbicidal effect index, Echinochloa oryzicola recorded for O=C1CCCC(O)=C1C(=O)c1cc2cccnc2n(Cc2ccccc2Cl)c1=O was 5

Value of measured Herbicidal effect index, Echinochloa oryzicola for the entry CC1(C)CC(=O)C(C(=O)c2cnc3ccccc3n2)=C(O)C1 [Comparative compound C, reference compound] : 1

The reported value for O=C1CCCC(O)=C1C(=O)c1cc2ccc(C(F)(F)F)nc2n(-c2ccccc2)c1=O in terms of Herbicidal effect index, Echinochloa oryzicola is 5

Note to self: Herbicidal effect index, Echinochloa oryzicola recorded for COc1ccccc1Cn1c(=O)c(C(=O)C2=C(O)CCCC2=O)cc2cccnc21 was 5

Lab book: Herbicidal effect index, Echinochloa oryzicola of COc1cccc(Cn2c(=O)c(C(=O)C3=C(O)CCCC3=O)cc3cccnc32)c1 noted as 5

The recorded Herbicidal effect index, Echinochloa oryzicola for entry O=C1CCCC(O)=C1C(=O)c1cc2cccnc2n(Cc2ccc(Cl)cc2)c1=O equals 4

// COc1ccc(-n2c(=O)c(C(=O)C3=C(O)CCCC3=O)cc3cccnc32)cn1 : Herbicidal effect index, Echinochloa oryzicola value = 5

// recorded Herbicidal effect index, Echinochloa oryzicola for Cn1c(=O)c(C(=O)C2=C(O)CCCC2=O)cc2ccccc21 : 5

compound O=C1CCCC(O)=C1C(=O)c1cc2cccnc2n(-c2ccccc2)c1=O , Herbicidal effect index, Echinochloa oryzicola observed: 5

Data point: Cc1ccc2cc(C(=O)C3=C(O)CCCC3=O)c(=O)n(C)c2n1 ; Herbicidal effect index, Echinochloa oryzicola = 5

In plain terms, CC1(C)CCC(=O)C(C(=O)c2cnc3ccccc3n2)=C1O [Comparative compound D, reference compound] has a documented Herbicidal effect index, Echinochloa oryzicola of 1

Value of measured Herbicidal effect index, Echinochloa oryzicola for the entry CCOCCn1c(=O)c(C(=O)C2=C(O)CCCC2=O)cc2cccnc21 : 5

Sample COc1ccc(-n2c(=O)c(C(=O)C3=C(O)CCCC3=O)cc3cccnc32)cc1 ; Herbicidal effect index, Echinochloa oryzicola observed: 5

The compound identified as CCc1ccc2cc(C(=O)C3=C(O)CCCC3=O)c(=O)n(C)c2n1 registered its Herbicidal effect index, Echinochloa oryzicola at 5

O=C1CCCC(O)=C1C(=O)c1cc2cccnc2n(Cc2cccc(Cl)c2)c1=O yielded Herbicidal effect index, Echinochloa oryzicola of 5

What the record says about COc1ccccc1-n1c(=O)c(C(=O)C2=C(O)CCCC2=O)cc2cccnc21 : Herbicidal effect index, Echinochloa oryzicola is 5

Note to self: Herbicidal effect index, Echinochloa oryzicola recorded for O=C1CCCC(O)=C1C(=O)c1cc2cccnc2n(-c2cccc(F)c2)c1=O was 5

Measured Herbicidal effect index, Echinochloa oryzicola, COc1ccc(Cn2c(=O)c(C(=O)C3=C(O)CCCC3=O)cc3cccnc32)cc1 : 5

# Herbicidal effect index, Echinochloa oryzicola of O=C1CCCC(O)=C1C(=O)c1cc2cccnc2n(Cc2ccccc2)c1=O = 5

For reference, reported Herbicidal effect index, Echinochloa oryzicola for O=C1CCCC(O)=C1C(=O)c1cc2cccnc2n(-c2ccc3c(c2)OCCO3)c1=O stands at 5

For reference, reported Herbicidal effect index, Echinochloa oryzicola for O=C1CCCC(O)=C1C(=O)c1cc2ccc(C(F)(F)Cl)nc2n(-c2ccccc2)c1=O stands at 5

// Herbicidal effect index, Echinochloa oryzicola lookup, compound = Cc1ccc2cc(C(=O)C3=C(O)CCCC3=O)c(=O)n(-c3ccccc3)c2n1 , result: 5

The measured Herbicidal effect index, Echinochloa oryzicola associated with Cc1ccc(C)c(-n2c(=O)c(C(=O)C3=C(O)CCCC3=O)cc3cccnc32)c1 reads 5

Reported Herbicidal effect index, Echinochloa oryzicola of O=C1CCCC(O)=C1C(=O)c1ccc2ccccc2n1 [Comparative compound B, reference compound] : 0

The reported value for O=C1CCCC(O)=C1C(=O)c1cc2ccc(C(F)F)nc2n(-c2ccc3c(c2)OCCO3)c1=O in terms of Herbicidal effect index, Echinochloa oryzicola is 5
